Each record here notes measured relative viability.
Test system: SK-MES-1
Assay: relative viability (nuclei count vs DMSO), 5 days (fraction); higher = more cells survive
Details: first compound 0.1 µM
Quick one: just the number, no unit, thanks!

NC(=O)Nc1cc(-c2cccc(F)c2)sc1C(=O)N[C@H]1CCCNC1 [AZD7762] + CC1(C)CCC(c2ccc(Cl)cc2)=C(CN2CCN(c3ccc(C(=O)NS(=O)(=O)c4ccc(N[C@H](CCN5CCOCC5)CSc5ccccc5)c(S(=O)(=O)C(F)(F)F)c4)cc3)CC2)C1 [Navitoclax] (partner 0.5 µM): 1.41
NC(=O)Nc1cc(-c2cccc(F)c2)sc1C(=O)N[C@H]1CCCNC1 [AZD7762] + N=C(N)NC(=N)NCCc1ccccc1 [Phenformin] (partner 250 µM): 0.709
NC(=O)Nc1cc(-c2cccc(F)c2)sc1C(=O)N[C@H]1CCCNC1 [AZD7762] + C[C@]1(O)C[C@@H](c2nc(-c3ccc4ccc(-c5ccccc5)nc4c3)c3c(N)nccn32)C1 [Linsitinib] (partner 1 µM): 1.11

Okay, now this molecule:
Give its relative viability value. Item: NC(=O)Nc1cc(-c2cccc(F)c2)sc1C(=O)N[C@H]1CCCNC1 [AZD7762] + CCNC(=O)c1noc(-c2cc(C(C)C)c(O)cc2O)c1-c1ccc(CN2CCOCC2)cc1 [Luminespib] (partner 0.01 µM)
0.38

---

System: NCI-H1792
Experiment: relative viability (nuclei count vs DMSO), 5 days (fraction); higher = more cells survive
Settings: first compound 0.8 µM
Decide using relative viability alone. Strictly below 0.6: Criterion met. Equal to or above 0.6: Criterion not met.

These recorded examples may help you get a feel for the data.
C=C1C(=O)O[C@@H](CCCCCCCC)[C@@H]1C(=O)O [C-75] + CS(=O)(=O)CCNCc1ccc(-c2ccc3ncnc(Nc4ccc(OCc5cccc(F)c5)c(Cl)c4)c3c2)o1 [Lapatinib] (partner 2 µM): Criterion not met
C=C1C(=O)O[C@@H](CCCCCCCC)[C@@H]1C(=O)O [C-75] + CC(=O)c1c(C)c2cnc(Nc3ccc(N4CCNCC4)cn3)nc2n(C2CCCC2)c1=O [Palbociclib] (partner 0.5 µM): Criterion not met
C=C1C(=O)O[C@@H](CCCCCCCC)[C@@H]1C(=O)O [C-75] + O=C(c1cc(Cc2n[nH]c(=O)c3ccccc23)ccc1F)N1CCN(C(=O)C2CC2)CC1 [Olaparib] (partner 8 µM): Criterion met
Oc1nc(-c2ccc(C(F)(F)F)cc2)nc2c1CSCC2 [XAV939] + C[C@@H](Oc1cc(-c2cnn(C3CCNCC3)c2)cnc1N)c1c(Cl)ccc(F)c1Cl [Crizotinib] (partner 1 µM): Criterion not met
Oc1nc(-c2ccc(C(F)(F)F)cc2)nc2c1CSCC2 [XAV939] + CCNC(=O)c1noc(-c2cc(C(C)C)c(O)cc2O)c1-c1ccc(CN2CCOCC2)cc1 [Luminespib] (partner 0.01 µM): Criterion met
Oc1nc(-c2ccc(C(F)(F)F)cc2)nc2c1CSCC2 [XAV939] + Nc1nc2[nH]cc(CCc3ccc(C(=O)N[C@@H](CCC(=O)O)C(=O)O)cc3)c2c(=O)[nH]1 [Pemetrexed] (partner 0.2 µM): Criterion not met
Oc1nc(-c2ccc(C(F)(F)F)cc2)nc2c1CSCC2 [XAV939] + Cc1nc(Nc2ncc(C(=O)Nc3c(C)cccc3Cl)s2)cc(N2CCN(CCO)CC2)n1 [Dasatinib] (partner 0.075 µM): Criterion not met
C=C1C(=O)O[C@@H](CCCCCCCC)[C@@H]1C(=O)O [C-75] + CCNC(=O)c1noc(-c2cc(C(C)C)c(O)cc2O)c1-c1ccc(CN2CCOCC2)cc1 [Luminespib] (partner 0.01 µM): Criterion met

Does the reported relative viability of C=C1C(=O)O[C@@H](CCCCCCCC)[C@@H]1C(=O)O [C-75] + CC(C)C[C@H](NC(=O)[C@H](Cc1ccccc1)NC(=O)c1cnccn1)B(O)O [Bortezomib] (partner 0.002 µM) stay below 0.6?
Criterion not met
